Target of assay: Full length human CD40 (huCD40) on cells (human, UniProt P25942 21-277)
Sequence (P25942 21-277): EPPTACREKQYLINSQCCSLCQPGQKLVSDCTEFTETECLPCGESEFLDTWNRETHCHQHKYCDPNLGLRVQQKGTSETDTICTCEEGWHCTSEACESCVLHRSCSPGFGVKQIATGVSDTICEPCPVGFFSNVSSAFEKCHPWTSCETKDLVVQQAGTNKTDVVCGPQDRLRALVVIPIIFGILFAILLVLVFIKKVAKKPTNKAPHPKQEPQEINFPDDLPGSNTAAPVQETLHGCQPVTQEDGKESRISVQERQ
Protocol: cell-based or functional assay
What DC EC50, CD83 surface expression, with cross-linker was measured for each of the following?
Give bare numbers, in µg/mL.

// below: answered binders
Binder: C40M12 (antibody, human IgG1, lambda, V domains shown, Full-length IgG1/lambda; from OmniRat (OMT)) VH: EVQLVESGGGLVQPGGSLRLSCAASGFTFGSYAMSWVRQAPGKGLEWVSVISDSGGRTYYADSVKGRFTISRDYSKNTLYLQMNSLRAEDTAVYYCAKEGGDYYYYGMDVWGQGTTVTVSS VL: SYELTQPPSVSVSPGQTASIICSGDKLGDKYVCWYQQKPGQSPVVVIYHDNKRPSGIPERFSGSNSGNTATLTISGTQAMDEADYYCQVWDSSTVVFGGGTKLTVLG
Recorded number: 0.332

Binder: C40M67 (antibody, human IgG1, kappa, V domains shown, Full-length IgG1/kappa; from phage display) VH: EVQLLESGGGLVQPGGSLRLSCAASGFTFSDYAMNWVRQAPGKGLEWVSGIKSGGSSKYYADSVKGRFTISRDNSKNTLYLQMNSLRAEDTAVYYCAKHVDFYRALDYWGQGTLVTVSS VL: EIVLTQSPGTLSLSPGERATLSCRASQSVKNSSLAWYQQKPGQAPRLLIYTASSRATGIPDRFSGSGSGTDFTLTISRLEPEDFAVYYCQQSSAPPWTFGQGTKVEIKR
Recorded number: 0.127

Binder: C40M9 (antibody, human IgG1, lambda, V domains shown) VH: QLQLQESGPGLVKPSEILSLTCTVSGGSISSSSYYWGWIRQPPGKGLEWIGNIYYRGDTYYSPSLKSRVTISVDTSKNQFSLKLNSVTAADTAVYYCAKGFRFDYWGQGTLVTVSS VL: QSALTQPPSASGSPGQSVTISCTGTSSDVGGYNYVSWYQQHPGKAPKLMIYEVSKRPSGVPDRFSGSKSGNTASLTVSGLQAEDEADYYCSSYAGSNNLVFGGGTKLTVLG
Recorded number: 0.0398

What value of DC EC50, CD83 surface expression, with cross-linker has been recorded for this entry: C40M18 (antibody, human IgG1, lambda, V domains shown, Full-length IgG1/lambda; from OmniRat (OMT); VH C40H48, VL C40L64) VH: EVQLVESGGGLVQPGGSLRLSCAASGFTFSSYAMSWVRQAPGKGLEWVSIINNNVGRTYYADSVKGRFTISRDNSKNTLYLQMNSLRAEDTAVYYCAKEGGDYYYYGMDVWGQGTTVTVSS VL: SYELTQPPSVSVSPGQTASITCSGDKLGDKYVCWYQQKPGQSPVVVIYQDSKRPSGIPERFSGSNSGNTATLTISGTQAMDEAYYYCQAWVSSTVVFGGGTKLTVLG
0.0478
